src = patent US6818749

Examples of binders with documented percent of complexes follow.
# target_or_test_system: anti-CC49 variable region (anti-idiotypic) antibodies in the serum of patient three
# test_name: HPLC size exclusion; 5 µg cold competitor + ^125I-HuCC49 + patient serum; less complex = more competition

- binder: "HuCC49 CDR variant H-3 (antibody, V domains shown) VH: QVQLVQSGAEVVKPGASVKISCKASGYTFTDHAIHWVKQNPGQRLEWIGYFSPGNDDFKYNERFKGKATLTADTSASTAYVELSSLRSEDTAVYFCTRGGYYGSGSGSNYWGQGTLVTVSS VL: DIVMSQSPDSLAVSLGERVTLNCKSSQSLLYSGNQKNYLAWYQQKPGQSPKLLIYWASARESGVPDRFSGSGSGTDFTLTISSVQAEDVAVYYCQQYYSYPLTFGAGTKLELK"
  percent of complexes: "3.7%"
- binder: "HuCC49 CDR variant H-1 (antibody, V domains shown) VH: QVQLVQSGAEVVKPGASVKISCKASGYTFTSYAMHWVKQNPGQRLEWIGYFSPGNDDFKYNERFKGKATLTADTSASTAYVELSSLRSEDTAVYFCTRSLNMAYWGQGTLVTVSS VL: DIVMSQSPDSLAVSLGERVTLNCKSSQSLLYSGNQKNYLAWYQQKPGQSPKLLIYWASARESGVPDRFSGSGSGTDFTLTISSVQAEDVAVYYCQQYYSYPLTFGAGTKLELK"
  percent of complexes: "3.3%"
- binder: "HuCC49 CDR variant L-1,2 (antibody, V domains shown) VH: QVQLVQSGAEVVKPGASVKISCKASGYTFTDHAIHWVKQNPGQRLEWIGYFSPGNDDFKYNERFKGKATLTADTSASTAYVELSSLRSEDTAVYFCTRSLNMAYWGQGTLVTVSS VL: DIVMSQSPDSLAVSLGERVTLNCKSSQSVLYSSNSKNYLAWYQQKPGQSPKLLIYWASTRESGVPDRFSGSGSGTDFTLTISSVQAEDVAVYYCQQYYSYPLTFGAGTKLELK"
  percent of complexes: "12.6%"
